Assay system: T1, TGFβ2 (R&D Systems)
T1 sequence (P61812 303-414, species assumed, looked up): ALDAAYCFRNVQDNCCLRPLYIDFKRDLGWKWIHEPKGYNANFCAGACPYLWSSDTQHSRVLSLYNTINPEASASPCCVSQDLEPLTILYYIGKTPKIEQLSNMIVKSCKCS
Assay explanation: SPR (Biacore T200), TGFβ amine-coupled to chip, 1:1 fit
Result type: pKd
pKd (log units): -log10 of the concentration in mol/L.

These recorded examples may help you get a feel for the data.
binder="Caninized anti-TGFβ1,2,3 antibody VH3.1 - VL3 (antibody, V domains shown) VH: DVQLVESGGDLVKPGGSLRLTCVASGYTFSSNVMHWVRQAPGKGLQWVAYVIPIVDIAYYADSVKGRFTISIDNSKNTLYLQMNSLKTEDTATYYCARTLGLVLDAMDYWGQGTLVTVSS VL: EIVMTQSPASLSLSQEEKVTITCRASQSLGSSYLAWYQQKPGQAPKLLIYGASSRAPGVPSRFSGSGSGTDFSFTISSLEPEDVAVYYCQQYADSPITFGQGTKLEIKR" quantitative_result=8.41
binder="Caninized anti-TGFβ1,2,3 antibody VH5.10 - VL3 (antibody, V domains shown) VH: EVQLVESGGDLVKPGGSLRLSCVASGFTFSSNVISWVRQAPGQGLEWMGGVIPIVDIANYAQRFKGRVTLTADTSTNTVYMELSNLRTEDTAVYYCARTLGLVLDAMDYWGQGTLVTVSS VL: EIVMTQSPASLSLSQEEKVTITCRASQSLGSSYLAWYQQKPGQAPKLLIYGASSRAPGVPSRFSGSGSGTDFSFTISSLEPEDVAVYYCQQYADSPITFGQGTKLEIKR" quantitative_result=8.45

Moving on to another binder below.
Kindly note the recorded pKd for Caninized anti-TGFβ1,2,3 antibody VH4.7 - VL2 (antibody, V domains shown) VH: QVQLVQSGAEVKKPGSSVKVSCKASGYTFSSNVISWVRQAPGKGLQWVGGVIPIVDIANYAQRFKGRVTITADESTSTTYMELSSLRSEDTAVYYCASTLGLVLDAMDYWGQGTLVTVSS VL: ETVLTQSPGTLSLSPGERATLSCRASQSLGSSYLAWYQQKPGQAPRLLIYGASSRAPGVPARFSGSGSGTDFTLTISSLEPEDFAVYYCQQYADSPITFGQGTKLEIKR , which is 8.70
